System: HOP-92
Experiment: NCI tumour cell line growth inhibition, 48 h
The source made the active and inactive calls. Rule as the data show it: active = GI50 up to about 1.1 µM and inactive = higher.
Below, each of the compounds is paired with its reported GI50 value.
Property label: GI50

INSERT INTO assay_data (compound, study_target, result) VALUES
  ('FC(F)(Sc1ncc[nH]1)c1nc2ccccc2o1', 'HOP-92', '> 100 µM (inactive)'),
  ('O=C1c2cscc2C(=O)c2c(OCc3ccccc3)ccc(OCc3ccccc3)c21', 'HOP-92', '> 100 µM (inactive)'),
  ('COc1cc(/C=N\O)nc(-c2ccccn2)c1', 'HOP-92', '1.44 µM (inactive)'),
  ('COc1ccc(-c2nc(-c3cc4ccccc4oc3=O)cs2)cc1', 'HOP-92', '60.8 µM (inactive)'),
  ('CCOC1Oc2ccccc2-c2nc(N)ncc21 (stereo not given)', 'HOP-92', '69 µM (inactive)'),
  ('N=c1oc2cc(O)ccc2cc1C(=O)Nc1ccccn1', 'HOP-92', '> 100 µM (inactive)'),
  ('CCOC(=O)[C@H](O)[C@@H](O)C(=O)NCc1ccc(C(=O)c2ccccc2)cc1', 'HOP-92', '> 100 µM (inactive)'),
  ('CC1=NN(C(=O)c2ccc(Cl)cc2)C(=O)/C1=C/c1cccc([N+](=O)[O-])c1', 'HOP-92', '> 100 µM (inactive)'),
  ('CN1CCN([C@H]2C[C@H]3[C@@H]4CC=C5C[C@@H](O)CC[C@]5(C)[C@H]4CC[C@]3(C)[C@H]2O)CC1', 'HOP-92', '> 100 µM (inactive)'),
  ('Cc1ccc2nc(N/N=C/c3ccc(C)s3)cc(C)c2c1', 'HOP-92', '4.44 µM (inactive)');
